# protocol_notes: Viscosity, Brookfield viscometer DV-II+ (Spindle No. 2, 12 rpm, 25°C)
# Type: physicochemical
Where a name gives a salt, the structure may show the parent alone.
Provide the reported Viscosity of each item.
Numbers only, in mPa·s.

# example entries with known answers
molecule	Viscosity (mPa·s)
CCOCCOCCOC(=O)CCCCC(=O)OCCOCCOCC [Example 3, dicarbitol adipate]	20
CCOCCOCCOC(=O)CCC(=O)OCCOCCOCC [Example 1, dicarbitol succinate]	12.5

Hey, quick one: what's Viscosity for each of these?
1. CCOCCOC(=O)CCC(=O)OCCOCC [Example 6]
2. CCOCCOCCOC(=O)C(O)C(O)C(=O)OCCOCCOCC (stereo not shown) [Example 4, dicarbitol tartrate]
3. CCOCCOCCOC(=O)CC(O)C(=O)OCCOCCOCC (stereo not shown) [Example 2, dicarbitol malate]
4. CCOCCOCCOC(=O)CC(C)CC(C)(C)C (stereo not shown) [Comparative example 1, carbitol isononanoate, reference compound]
5. CCOCCOCCOCCOC(=O)CCC(=O)OCCOCCOCCOCC [Example 5]

Key:
1: 10.0; 2: 207; 3: 45; 4: 5; 5: 32.5

====

# protocol_notes: Feeling of use, graded by viscosity
# Format: physicochemical
# reported_conditions: class by viscosity at 25°C
endpoint: Feeling of use

# example entries with known answers
compound	result_value
CCOCCOC(=O)CCC(=O)OCCOCC	light
CCOCCOCCOCCOC(=O)CCC(=O)OCCOCCOCCOCC	slightly light
CCOCCOCCOC(=O)CC(C)CC(C)(C)C (stereo not shown) [Comparative example 1, carbitol isononanoate, reference compound]	light
CCOCCOCCOC(=O)CCCCC(=O)OCCOCCOCC [Example 3, dicarbitol adipate]	light
CCOCCOCCOC(=O)CC(O)C(=O)OCCOCCOCC (stereo not shown) [Example 2, dicarbitol malate]	slightly light

Exercise: Suppose we examine the compound CCOCCOCCOC(=O)CCC(=O)OCCOCCOCC [Example 1, dicarbitol succinate] ; what Feeling of use value has been reported?
Key: light
